Tgt: RXR-VDR heterodimer (Homo sapiens)
Construct: add the Gal-4-RXR-DEF and VP16-VDR-LBD
Sequence (P11473 127-423 limits assumed): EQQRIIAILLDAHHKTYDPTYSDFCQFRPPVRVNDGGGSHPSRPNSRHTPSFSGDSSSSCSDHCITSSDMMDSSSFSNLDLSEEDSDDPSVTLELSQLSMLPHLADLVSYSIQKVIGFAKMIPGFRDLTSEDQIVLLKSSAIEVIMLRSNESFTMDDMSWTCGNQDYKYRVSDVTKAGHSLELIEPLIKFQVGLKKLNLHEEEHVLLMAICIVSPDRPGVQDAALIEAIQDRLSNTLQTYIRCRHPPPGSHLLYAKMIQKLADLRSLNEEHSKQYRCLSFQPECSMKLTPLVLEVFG
Sequence (P19793 201-462 partner limits assumed): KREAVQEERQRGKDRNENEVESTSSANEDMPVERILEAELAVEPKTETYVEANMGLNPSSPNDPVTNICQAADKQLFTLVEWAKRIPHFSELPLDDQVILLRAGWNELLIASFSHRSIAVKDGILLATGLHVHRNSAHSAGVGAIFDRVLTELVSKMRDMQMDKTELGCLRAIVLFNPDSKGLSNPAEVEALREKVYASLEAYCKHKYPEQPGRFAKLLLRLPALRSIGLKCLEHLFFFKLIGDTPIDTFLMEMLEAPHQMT
Experimental Protocol: RXR-VDR heterodimerization (SaOS-2 cells) test
Condition Parameters: Gal-4-RXR-DEF and VP16-VDR-LBD, luciferase reporter
Value Type: EC50
Put your answer as a value accompanied by its unit after it.

Molecule	Value Type	Result
CCC(CC)(c1ccc(OCC(=O)C(C)(C)C)c(C)c1)c1nc2ccc(C(=O)O)cc2o1	EC50	1120 nM
CCC(CC)(c1ccc(OCC(=O)C(C)(C)C)c(C)c1)c1nc2ccc(C(=O)NCC(=O)O)cc2o1	EC50	700 nM
CCC(CC)(c1ccc(OCC(=O)C(C)(C)C)c(C)c1)c1nc2cc(C(=O)N(C)C)ccc2o1	EC50	117 nM
CCC(CC)(c1ccc(OCC(=O)C(C)(C)C)c(C)c1)c1nc2cc(C(=O)NCC(=O)O)ccc2o1	EC50	150 nM

Now turn to the next molecule.
Exercise: Name the recorded EC50 of CCC(CC)(c1ccc(OCC(O)C(C)(C)C)c(C)c1)c1nc2cc(C(=O)O)ccc2o1 (centres unmarked) , assay system RXR-VDR heterodimer (Homo sapiens).
Solution: 5 nM

Numbers sourced from patent US7659296B2.
